Target: T1, human PD-L1 (Cat. #10084-H08H, Sino Biological) (human, UniProt Q9NZQ7 19-239)
T1 construct: Bought recombinant protein used in the Biacore test; also called hPDL1; hPD-L1
T1 sequence (Q9NZQ7 19-239 limits assumed): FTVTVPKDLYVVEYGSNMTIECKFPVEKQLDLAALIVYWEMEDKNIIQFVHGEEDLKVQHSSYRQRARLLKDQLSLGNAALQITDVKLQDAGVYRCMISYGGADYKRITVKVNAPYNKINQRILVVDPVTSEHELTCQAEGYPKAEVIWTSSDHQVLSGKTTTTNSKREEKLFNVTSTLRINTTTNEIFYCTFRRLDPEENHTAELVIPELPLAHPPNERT
Experiment: SPR, Biacore X100, 1:1 Langmuir
measure: kon (M⁻¹ s⁻¹)
Output spec: scalar in M⁻¹ s⁻¹, unitless text.

Enquiry: Item under review: H17L61 (antibody, human IgG1, kappa, V domains shown, also called 24D5 H17 and 24D5 L61) VH: QVQLVQSGAEVKKPGASVKVSCKASGYTFTSYWMHWVRQAPGQGLEWMGRIGPNLGWAMYNEKYKNRVTMTRDTSTSTVYMELSSLGSEDTAVYYCARGGSSYDYFDYWGQGTTVTVSS VL: DIVLTQSPASLAVSPGQRATITCRASESVSIHGTHLMHWYQQKPGQPPKLLIYAASNLESGVPARFSGSGSGTDFTLTINPVEAEDTANYYCQQSFEDPLTFGQGTKLEIKR . Reported kon?
Return: 2.43e+06

API: the following record is the query input.
Enquiry: Item under review: H18L61 (antibody, human IgG1, kappa, V domains shown, also called 24D5 H18 and 24D5 L61) VH: QVQLVQSGAEVKKPGASVKVSCKASGYTFTSYWMHWVRQAPGQGLEWMGRISPSSGMAVYNEKFKNRVTMTRDTSTSTVYMELSSLRSEDTAVYYCARGGSSYDYFDYWGQGTTVTVSS VL: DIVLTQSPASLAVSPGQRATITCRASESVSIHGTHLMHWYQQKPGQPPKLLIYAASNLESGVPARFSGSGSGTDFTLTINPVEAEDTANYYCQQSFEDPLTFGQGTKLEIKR . Reported kon?
Return: 1.71e+06
